# credit: patent US20100167390

measured on: NF-kB p50 (NFKB1) (UniProt P19838 P19838:1-433)
Sequence (P19838 1-433, one chain of several): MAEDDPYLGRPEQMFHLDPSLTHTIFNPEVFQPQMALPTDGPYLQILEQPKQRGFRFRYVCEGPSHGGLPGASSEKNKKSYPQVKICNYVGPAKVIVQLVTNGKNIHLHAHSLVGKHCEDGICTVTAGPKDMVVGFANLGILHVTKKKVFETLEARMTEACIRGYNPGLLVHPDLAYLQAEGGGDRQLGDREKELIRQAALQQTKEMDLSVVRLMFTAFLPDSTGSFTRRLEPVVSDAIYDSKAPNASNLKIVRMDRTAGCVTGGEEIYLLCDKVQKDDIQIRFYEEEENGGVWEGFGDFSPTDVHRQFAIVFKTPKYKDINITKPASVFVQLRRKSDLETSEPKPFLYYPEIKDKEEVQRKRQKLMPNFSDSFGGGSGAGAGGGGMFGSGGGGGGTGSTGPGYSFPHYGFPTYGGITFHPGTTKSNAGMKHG
method summary: competition
run conditions: protein: extract; tags: TPA and CI-stimulated Jurkat nuclear extract, Active Motif
Record form. Attribute: IC50. Fill in for each entry.
Give the value, in units of nM, as a plain number.

Ask | Which measured IC50 value corresponds to PSODN8 (dsDNA, PS only within consensus gggatttccc, both strands) DNA 1: CCCGGGATTTCCCACC DNA 2: GGTGGGAAATCCCGGG ?
Reply | 1.08

Ask | Also check PSODN30 (dsDNA, PS only within consensus gggatttccc, both strands) DNA 1: GGCTGGGATTTCCCGCGG DNA 2: CCGCGGGAAATCCCAGCC
Reply | 0.69

Ask | Also check PSODN17 (dsDNA, PS only within consensus gggatttccc, both strands) DNA 1: CCCTGGGATTTCCCGCC DNA 2: GGCGGGAAATCCCAGGG
Reply | 0.91
